Assay: Caco-2 cell permeability study
Type: in vitro ADME
Details: human, Caco-2, pH 7.4, Caco-2, 5 μM; read-out: Mean % Solution Recovery A to B
value_type: recovery at 2 h, 5 μM (%)

C[C@@H]1C(=O)[C@](C)(O)C(=O)NCC(=O)N[C@H](CN2CCN(C)CC2)/C=C/C(=O)N(C)CC(=O)O[C@H]1CCCCCc1cn(CCCCCCCCCC(=O)O)nn1
99.5
C[C@H]1O[C@@H](O[C@H]2[C@@H](O)C[C@H](O[C@H]3[C@@H](O)C[C@H](O[C@H]4CC[C@@]5(C)[C@H](CC[C@@H]6[C@@H]5C[C@@H](O)[C@]5(C)[C@@H](C7=CC(=O)OC7)CC[C@]65O)C4)O[C@@H]3C)O[C@@H]2C)C[C@H](O)[C@@H]1O [Digoxin, reference compound]
83.2
Nc1cc(N2CCCCC2)nc(N)[n+]1[O-] [Minoxidil, reference compound]
104
CC1C(=O)C(C)(O)C(=O)NCC(=O)NC(CN2CCN(C)CC2)C=CC(=O)N(C)CC(=O)OC1CCCCc1cn(CCCCCCCCNC(=N)N)nn1 (stereo not shown)
109

----------
Test: Caco-2 cell permeability study
Assay type: in vitro ADME
Conditions: human, pH 7.4; Caco-2, 5 μM, 2 h, basolateral to apical
value_type: Papp B→A at 2 h, 5 µM (×10⁻⁶ cm/s)

Check out these entries, answers already filled in.
C[C@@H]1C(=O)[C@](C)(O)C(=O)NCC(=O)N[C@H](CN2CCN(C)CC2)/C=C/C(=O)N(C)CC(=O)O[C@H]1CCCCCc1cn(CCCCCCCNc2cccc3c2CN(C2CCC(=O)NC2=O)C3=O)nn1 (stereo partly shown)
0.13
C[C@@H]1C(=O)[C@](C)(O)C(=O)NCC(=O)N[C@H](CN2CCN(C)CC2)/C=C/C(=O)N(C)CC(=O)O[C@H]1CCCCCc1cn(CCCCCCCCCC(=O)O)nn1
0.105
Nc1cc(N2CCCCC2)nc(N)[n+]1[O-] [Minoxidil, reference compound]
10.3
C[C@H]1O[C@@H](O[C@H]2[C@@H](O)C[C@H](O[C@H]3[C@@H](O)C[C@H](O[C@H]4CC[C@@]5(C)[C@H](CC[C@@H]6[C@@H]5C[C@@H](O)[C@]5(C)[C@@H](C7=CC(=O)OC7)CC[C@]65O)C4)O[C@@H]3C)O[C@@H]2C)C[C@H](O)[C@@H]1O [Digoxin, reference compound]
20

1 = CC1C(=O)C(C)(O)C(=O)NCC(=O)NC(CN2CCN(C)CC2)C=CC(=O)N(C)CC(=O)OC1CCCCc1cn(CCCCCCCCNC(=N)N)nn1 (stereo not shown)
2 = CCCCCCCCCCCCCC1OC(=O)CN(C)C(=O)C=CC(CN2CCN(C)CC2)NC(=O)CNC(=O)C(C)(O)C(=O)C1C (stereo not shown)
Prompt line: Smaller Papp B→A at 2 h, 5 µM value, 1 vs 2 ? Identify your selection by its label.
Response line: 1

----------
Test: Kinetic solubility in PBS pH 7.4
Assay type: physicochemical
Conditions: sodium phosphate buffer (PBS), 25 °C, pH 7.4, aqueous buffer, kinetic from dmso stock, PBS pH 7.4, 25 °C
value_type: solubility at 2 h (µM)

Check out these entries, answers already filled in.
C[C@@H]1C(=O)[C@](C)(O)C(=O)NCC(=O)N[C@H](CN2CCN(C)CC2)/C=C/C(=O)N(C)CC(=O)O[C@H]1CCCCCc1cn(CCCCCCCNc2cccc3c2CN(C2CCC(=O)NC2=O)C3=O)nn1 (some centres unmarked) [Compound 40]
259
CCCCCCCCCCCCCC1OC(=O)CN(C)C(=O)C=CC(CN2CCN(C)CC2)NC(=O)CNC(=O)C(C)(O)C(=O)C1C (centres unmarked) [BE-NMP]
210

P = CC1C(=O)C(C)(O)C(=O)NCC(=O)NC(CN2CCN(C)CC2)C=CC(=O)N(C)CC(=O)OC1CCCCc1cn(CCCCCCCCNC(=N)N)nn1 (centres unmarked) [Compound 31]
Q = CC(=O)[C@H]1CC[C@H]2[C@@H]3CCC4=CC(=O)CC[C@]4(C)[C@H]3CC[C@]12C [Progesterone, reference compound]
Prompt line: Smaller solubility at 2 h value, P vs Q ? Identify your selection by its label.
Response line: Q
(Q: 13.1 µM, P: 268 µM)

----------
Assay: Caco-2 cell permeability study
Assay type: in vitro ADME
Conditions: human, Caco-2, pH 7.4
value_type: efflux ratio at 2 h, 5 µM

Check out these entries, answers already filled in.
C[C@@H]1C(=O)[C@](C)(O)C(=O)NCC(=O)N[C@H](CN2CCN(C)CC2)/C=C/C(=O)N(C)CC(=O)O[C@H]1CCCCCc1cn(CCCCCCCCCC(=O)O)nn1
1.26
C[C@H]1O[C@@H](O[C@H]2[C@@H](O)C[C@H](O[C@H]3[C@@H](O)C[C@H](O[C@H]4CC[C@@]5(C)[C@H](CC[C@@H]6[C@@H]5C[C@@H](O)[C@]5(C)[C@@H](C7=CC(=O)OC7)CC[C@]65O)C4)O[C@@H]3C)O[C@@H]2C)C[C@H](O)[C@@H]1O [Digoxin, reference compound]
25.9

1 = CC1C(=O)C(C)(O)C(=O)NCC(=O)NC(CN2CCN(C)CC2)C=CC(=O)N(C)CC(=O)OC1CCCCc1cn(CCCCCCCCNC(=N)N)nn1 (stereo not drawn)
2 = Nc1cc(N2CCCCC2)nc(N)[n+]1[O-] [Minoxidil, reference compound]
Prompt line: Smaller efflux ratio at 2 h, 5 µM value, 1 vs 2 ? Identify your selection by its label.
Response line: 2
(2: 1.08, 1: 2.57)

----------
Assay: Caco-2 cell permeability study
Type: in vitro ADME
Details: human, Caco-2, pH 7.4, Caco-2, 5 μM; read-out: Mean % Solution Recovery B to A
value_type: recovery at 2 h, 5 μM (%)

C[C@@H]1C(=O)[C@](C)(O)C(=O)NCC(=O)N[C@H](CN2CCN(C)CC2)/C=C/C(=O)N(C)CC(=O)O[C@H]1CCCCCc1cn(CCCCCCCNc2cccc3c2CN(C2CCC(=O)NC2=O)C3=O)nn1 (stereo partly shown)
50.4

a = C[C@@H]1C(=O)[C@](C)(O)C(=O)NCC(=O)N[C@H](CN2CCN(C)CC2)/C=C/C(=O)N(C)CC(=O)O[C@H]1CCCCCc1cn(CCCCCCCCCC(=O)O)nn1
b = CCCCCCCCCCCCCC1OC(=O)CN(C)C(=O)C=CC(CN2CCN(C)CC2)NC(=O)CNC(=O)C(C)(O)C(=O)C1C (stereo not shown)
Prompt line: Smaller recovery at 2 h, 5 μM value, a vs b ? Identify your selection by its label.
Response line: b
(b: 8.99%, a: 48.6%)

----------
Target: recombinant human eEF1A1 (Homo sapiens, UniProt P68104)
Construct: purchased TMPH-01283
Sequence (P68104 whole entry): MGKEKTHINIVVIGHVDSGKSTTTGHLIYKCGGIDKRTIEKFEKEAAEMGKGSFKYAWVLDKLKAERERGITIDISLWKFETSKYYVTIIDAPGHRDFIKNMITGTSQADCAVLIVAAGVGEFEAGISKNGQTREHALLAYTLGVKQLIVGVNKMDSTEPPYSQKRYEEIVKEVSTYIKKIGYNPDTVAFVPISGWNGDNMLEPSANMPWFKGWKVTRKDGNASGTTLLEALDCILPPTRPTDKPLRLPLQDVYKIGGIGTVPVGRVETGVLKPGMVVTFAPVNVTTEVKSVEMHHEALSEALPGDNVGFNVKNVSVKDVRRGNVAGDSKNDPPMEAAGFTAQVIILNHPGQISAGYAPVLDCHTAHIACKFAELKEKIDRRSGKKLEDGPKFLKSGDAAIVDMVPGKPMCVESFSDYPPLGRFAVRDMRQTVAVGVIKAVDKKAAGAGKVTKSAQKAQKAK
Assay: MicroScale Thermophoresis (MST) binding assay
Conditions: MST, 50 mM HEPES pH 7.4, 0.05% Tween-20, triplicate, mean ± SD; read-out: Kd
value_type: Kd (µM)
The reply should contain only the number, in µM.

Prompt line: Item CCCCOc1ccc(-c2ccc(-c3ccc(Cn4cc(CCCCC[C@H]5OC(=O)CN(C)C(=O)/C=C/[C@@H](CN6CCN(C)CC6)NC(=O)CNC(=O)[C@@](C)(O)C(=O)[C@H]5C)nn4)cc3)cc2)cc1 : provide Kd
Response line: 7.82

----------
Test: Caco-2 cell permeability study
Format: in vitro ADME
Settings: human, Caco-2, pH 7.4, Caco-2, 5 μM; read-out: Mean % Solution Recovery B to A
value_type: recovery at 2 h, 5 μM (%)

C[C@H]1O[C@@H](O[C@H]2[C@@H](O)C[C@H](O[C@H]3[C@@H](O)C[C@H](O[C@H]4CC[C@@]5(C)[C@H](CC[C@@H]6[C@@H]5C[C@@H](O)[C@]5(C)[C@@H](C7=CC(=O)OC7)CC[C@]65O)C4)O[C@@H]3C)O[C@@H]2C)C[C@H](O)[C@@H]1O [Digoxin, reference compound]
95

A = Nc1cc(N2CCCCC2)nc(N)[n+]1[O-] [Minoxidil, reference compound]
B = CC1C(=O)C(C)(O)C(=O)NCC(=O)NC(CN2CCN(C)CC2)C=CC(=O)N(C)CC(=O)OC1CCCCc1cn(CCCCCCCCNC(=N)N)nn1 (stereo not drawn)
Prompt line: Higher recovery at 2 h, 5 μM between A and B ? Identify your selection by its label.
Response line: A

----------
Assay: Caco-2 cell permeability study
Format: in vitro ADME
Conditions: human, pH 7.4; Caco-2, 5 μM, 2 h, apical to basolateral
value_type: Papp A→B at 2 h, 5 µM (×10⁻⁶ cm/s)

C[C@@H]1C(=O)[C@](C)(O)C(=O)NCC(=O)N[C@H](CN2CCN(C)CC2)/C=C/C(=O)N(C)CC(=O)O[C@H]1CCCCCc1cn(CCCCCCCCCC(=O)O)nn1 [Compound 39]
0.0836
C[C@H]1O[C@@H](O[C@H]2[C@@H](O)C[C@H](O[C@H]3[C@@H](O)C[C@H](O[C@H]4CC[C@@]5(C)[C@H](CC[C@@H]6[C@@H]5C[C@@H](O)[C@]5(C)[C@@H](C7=CC(=O)OC7)CC[C@]65O)C4)O[C@@H]3C)O[C@@H]2C)C[C@H](O)[C@@H]1O [Digoxin, reference compound]
0.77

a = Nc1cc(N2CCCCC2)nc(N)[n+]1[O-] [Minoxidil, reference compound]
b = CC1C(=O)C(C)(O)C(=O)NCC(=O)NC(CN2CCN(C)CC2)C=CC(=O)N(C)CC(=O)OC1CCCCc1cn(CCCCCCCCNC(=N)N)nn1 (stereo not shown) [Compound 31]
Prompt line: Smaller Papp A→B at 2 h, 5 µM value, a vs b ? Identify your selection by its label.
Response line: b
(b: 0.0348 ×10⁻⁶ cm/s, a: 9.52 ×10⁻⁶ cm/s)
